Tested on: Serratia marcescens K 84-18
PROTOCOL TEXT: in vitro antibacterial MIC, agar plate dilution
Type: cell-based
CONDITION NOTES: Serratia marcescens, K8418, 18 h, 35° C., read-out: MIC
Quick list: MIC per entry.
Write down the numeric answer in µg/mL and omit the unit.

Observe how each entry below is paired with its result.
COMPOUND	MIC [µg/mL]
CCn1cc(C(=O)O)c(=O)c2cc(F)c(N3CCNC(c4ccccn4)C3)c(F)c21 (stereo not shown)	0.5
O=C(O)c1cn(C2CC2)c2cc(N3CCNC(CF)C3)c(F)cc2c1=O (stereo not shown)	0.12

Pending compound:
Prompt: # MIC lookup, item COCC1CN(c2cc3c(cc2F)c(=O)c(C(=O)O)cn3-c2ccc(F)cc2)CCN1 (stereo not shown)
Response: 2
